Recorded values, source patent US4551472A.

- System: Bean
- Assay explanation: Phytotoxicity Test, bean
- Condition set: 2500 ppm spray, ten days
Reported property: Phytotoxicity: Bean

Consider the following illustrative entries.
INPUT: Field request: Phytotoxicity: Bean | item: CSC(C)=NOC(=O)N(C)SN(C)C(=O)Oc1cccc2ccccc12
OUTPUT: 1

INPUT: Given the molecule CN(SN(C)C(=O)Oc1cccc2c1OC(C)(C)C2)C(=O)ON=C1CSCCS1 , what is its reported Phytotoxicity: Bean?
OUTPUT: 1

INPUT: Fill in: Phytotoxicity: Bean of CSC(C)=NOC(=O)N(C)SN(C)C(=O)Oc1ccc(C(C)C)cc1 is ___
OUTPUT: 1

INPUT: Quick check: Phytotoxicity: Bean of CSC(C)=NOC(=O)N(C)SN(C)C(=O)Oc1ccccc1OC(C)C ?
OUTPUT: 1

INPUT: Entry under review: CN(SN(C)C(=O)Oc1cccc2ccccc12)C(=O)ON=C1CSCCS1 . Reported Phytotoxicity: Bean?
OUTPUT: 1

INPUT: Fill in the blank: the reported Phytotoxicity: Bean of C#CCOc1ccccc1OC(=O)N(C)SN(C)C(=O)ON=C(C)SC is ____.
OUTPUT: 1

INPUT: GET /values?readout=Phytotoxicity: Bean&item= CSC(C)=NOC(=O)N(C)SN(C)C(=O)Oc1ccc([N+](=O)[O-])cc1
OUTPUT: 1

INPUT: Would you kindly share the measured Phytotoxicity: Bean for CSC(C)=NOC(=O)N(C)SN(C)C(=O)Oc1cc(C)c(C)c(C)c1 ?
OUTPUT: 1

Next:
INPUT: Query (molecule): CSC(C)=NOC(=O)N(C)SN(C)C(=O)Oc1ccccc1C1OCCO1 ; field requested: Phytotoxicity: Bean
OUTPUT: 2

INPUT: Returns the measured Phytotoxicity: Bean for the input molecule. Input: CSC(C)=NOC(=O)N(C)SN(C)C(=O)Oc1ccc(NC=O)c(C)c1
OUTPUT: 1

INPUT: Which Phytotoxicity: Bean value belongs to CSC(C)=NOC(=O)N(C)SN(C)C(=O)Oc1cccc(C(C)C)c1 ?
OUTPUT: 1

INPUT: State the recorded Phytotoxicity: Bean for this entry: CSC(C)=NOC(=O)N(C)SN(C)C(=O)ON=C1SCSCS1
OUTPUT: 1

INPUT: Give its Phytotoxicity: Bean value. Item: CSC(C)=NOC(=O)N(C)SN(C)C(=O)ON=C(SC)C(=O)N(C)C
OUTPUT: 1

INPUT: Phytotoxicity: Bean lookup needed for C#CCOC(=O)N(C)SN(C)C(=O)Oc1ccc(C)c(C)c1 , thanks.
OUTPUT: 1

INPUT: Record request: Phytotoxicity: Bean value, item CN(SN(C)C(=O)ON=C1SC(C)(C)C(=O)N1C)C(=O)ON=C1CSCCS1
OUTPUT: 1

INPUT: Any idea what Phytotoxicity: Bean was measured for CSC(C)=NOC(=O)N(C)SN(C)C(=O)ON=C(C)SCCC#N ?
OUTPUT: 1

INPUT: Return reported Phytotoxicity: Bean; argument: CSC(C)=NOC(=O)N(C)SN(C)C(=O)ON=CC(C)(C)SC
OUTPUT: 2

INPUT: Report Phytotoxicity: Bean for C=CCc1ccc(OC(=O)N(C)SN(C)C(=O)ON=C(C)SC)c(OC)c1 please.
OUTPUT: 1

INPUT: Query: Phytotoxicity: Bean; subject: CSC(C)=NOC(=O)N(C)SN(C)C(=O)Oc1ccc(SC)c(C)c1
OUTPUT: 1

INPUT: Could you share which Phytotoxicity: Bean value was measured for CSC(C)=NOC(=O)N(C)SN(C)C(=O)Oc1cccc(Oc2ccccc2)c1 ?
OUTPUT: 1
